Known hERG current change (%, negative = inhibition) at 10uM of a selection of compounds
biological target: human ether-à-go-go-related gene (hERG) potassium channel (human); assay: primary screen, population patch clamp on CHO cells stably expressing hERG; higher = less effect of the substance;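 also: peak tail current of the secondary pulse compared with the same well before compound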
Sequence (Q12809 whole entry, looked up): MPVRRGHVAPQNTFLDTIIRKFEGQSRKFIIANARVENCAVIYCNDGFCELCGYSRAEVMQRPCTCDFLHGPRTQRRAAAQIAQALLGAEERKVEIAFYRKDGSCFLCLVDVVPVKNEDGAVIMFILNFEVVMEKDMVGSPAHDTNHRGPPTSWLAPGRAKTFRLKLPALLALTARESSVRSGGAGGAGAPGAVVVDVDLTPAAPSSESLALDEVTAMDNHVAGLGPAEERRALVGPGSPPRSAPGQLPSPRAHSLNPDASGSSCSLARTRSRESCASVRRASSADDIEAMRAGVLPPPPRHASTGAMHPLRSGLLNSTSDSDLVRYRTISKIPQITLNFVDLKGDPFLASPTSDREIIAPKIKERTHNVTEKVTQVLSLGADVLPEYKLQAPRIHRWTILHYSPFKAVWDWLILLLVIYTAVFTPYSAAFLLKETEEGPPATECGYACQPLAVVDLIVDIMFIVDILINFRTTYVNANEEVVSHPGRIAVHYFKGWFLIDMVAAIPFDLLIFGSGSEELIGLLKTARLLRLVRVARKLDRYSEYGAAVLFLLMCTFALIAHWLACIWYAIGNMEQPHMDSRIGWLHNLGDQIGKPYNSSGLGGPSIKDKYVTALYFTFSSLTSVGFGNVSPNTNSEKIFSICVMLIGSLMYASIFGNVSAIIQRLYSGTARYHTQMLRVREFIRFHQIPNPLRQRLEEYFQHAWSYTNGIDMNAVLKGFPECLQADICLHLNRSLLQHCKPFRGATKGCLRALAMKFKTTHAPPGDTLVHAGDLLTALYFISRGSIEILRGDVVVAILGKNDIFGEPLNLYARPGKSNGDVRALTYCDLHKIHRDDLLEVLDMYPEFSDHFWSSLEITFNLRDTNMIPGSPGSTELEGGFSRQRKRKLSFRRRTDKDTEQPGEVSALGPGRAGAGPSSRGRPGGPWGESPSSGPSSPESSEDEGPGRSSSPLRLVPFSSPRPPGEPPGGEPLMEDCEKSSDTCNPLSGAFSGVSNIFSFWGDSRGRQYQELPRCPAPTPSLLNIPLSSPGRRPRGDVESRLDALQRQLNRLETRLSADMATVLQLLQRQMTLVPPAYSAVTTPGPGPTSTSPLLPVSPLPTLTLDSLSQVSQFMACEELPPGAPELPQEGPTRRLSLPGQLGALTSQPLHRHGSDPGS
The whole screen tested about 310,000 compounds, of which about 14,000 (4.5%) showed an effect of 50% or more. Effects have a minus sign here. The sample as a whole holds a higher share of strong results than the screen did.
property: hERG current change (%, negative = inhibition) at 10uM (%)

• Cc1cc(Cl)c(S(=O)(=O)Nc2ccc(Cl)cn2)cc1OCC(N)=O = -2.03
• O=C(NC(Cc1c[nH]c2ccccc12)c1nnc2n1CCCCC2)c1ccccc1 (centres unmarked) = 18.7
• Cc1cccc(NS(=O)(=O)c2cccc(C(=O)NCc3ccccc3CN3CCOCC3)c2)c1 = -26
• Cc1cc(Cl)c(S(=O)(=O)N2CCN(c3ccccn3)CC2)cc1OCC(N)=O = 17.6
• Cc1cc(Cl)c(S(=O)(=O)NCc2cccnc2)cc1OCC(N)=O = 10.1
• COc1ccc(NS(=O)(=O)c2cccc(C(=O)NCc3ccccc3CN3CCCC3)c2)cc1 = -64.4
• COC(=O)[C@@H]1Cc2c([nH]c3ccccc23)C(C)N1C(=O)c1ccccc1 (some centres unmarked) = 3.27
• CC(=O)NC1CC2CCCC(C1)N2CC(=O)N1CCCc2ccccc21 (centres unmarked) = -7.15
• O=C(Cn1cnc2ccccc2c1=O)NCCC(=O)Nc1ccc2c(c1)OCO2 = 16.4
• Cc1nc(COc2ccc(C(=O)NCc3ccccc3CN3CCCCC3)cc2)cs1 = -52.5
• Cc1cc(Cl)c(S(=O)(=O)NC2CCCC2)cc1OCC(=O)NC1CCCCC1 = -7.18
• Cc1cc(Cl)c(S(=O)(=O)NCc2cccnc2)cc1OCC(=O)NC1CCCCC1 = -53.2
• O=C(NCc1ccccc1CN1CCCC1)c1ccc(OCc2cscn2)cc1 = -30
• Cc1cc2n(c(=O)c1C#N)CCCN2c1cccc(Cl)c1 = -65
• COc1ccc(NS(=O)(=O)c2cccc(C(=O)NCc3ccco3)c2)cc1 = -15.8
• Cc1ccc(N2CCCn3c2cc(C)c(C#N)c3=O)cc1Cl = -22.8
• COc1ccc2[nH]cc(CCNS(=O)(=O)c3ccc(F)cc3)c2c1 = 4.05
• Cc1cc(Cl)c(S(=O)(=O)Nc2ccccn2)cc1OCC(N)=O = -71.8
• CCCCOc1nc2ccccc2nc1NS(=O)(=O)c1ccc(F)cc1 = -5.01
• O=C(CN1C2CCCC1CC(NC(=O)C1CCCCC1)C2)Nc1ccccc1 (centres unmarked) = -27
